tested on: NCI-H1437 human lung cancer cells; experiment: CellTiter-Glo luminescent cell viability assay, NCI-H1437 human lung cancer cells; type: cell-based; settings: 72 hours
pIC50: −log10 of the molar value.
QUANTITY: pIC50

Problem: Given `C[C@]12CC[C@@H]3c4ccc(O)cc4CC[C@H]3[C@@H]1CCC2=O` , state its recorded pIC50.
Solution: ≤ 4.00

====

tested on: HCC1395 breast cancer cells; assay: CellTiter-Glo luminescent cell viability assay, HCC1395 breast cancer cells; type: cell-based; conditions: Homo sapiens, 72 hours, FIG. 3
QUANTITY: EC50 (mM)
Numbers only, in mM.

Problem: May I ask what EC50 has been recorded for C[C@]12CC[C@@H]3c4ccc(O)cc4CC[C@H]3[C@@H]1CCC2=O [Estrone] ?
Solution: 74

====

test system: SKOV-3 ovarian cancer cells; assay: CellTiter-Glo luminescent cell viability assay, SKOV-3 ovarian cancer cells; format: cell-based; settings: Homo sapiens, SK-OV-3; SKOV-3 cells, 72 hours, CellTiter-Glo, FIG. 2
QUANTITY: EC50 (µM)
Answers are plain numbers, in µM.

Problem: State the recorded EC50 for this entry: `C[C@]12CC[C@@H]3c4ccc(O)cc4CC[C@H]3[C@@H]1CCC2=O`
Solution: 16.4
